- TEST SYSTEM: furin, P09958;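 note: purified furin at 1:10 enzyme:substrate in 50 mM HEPES pH 7.5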
- Sequence (P09958 whole entry): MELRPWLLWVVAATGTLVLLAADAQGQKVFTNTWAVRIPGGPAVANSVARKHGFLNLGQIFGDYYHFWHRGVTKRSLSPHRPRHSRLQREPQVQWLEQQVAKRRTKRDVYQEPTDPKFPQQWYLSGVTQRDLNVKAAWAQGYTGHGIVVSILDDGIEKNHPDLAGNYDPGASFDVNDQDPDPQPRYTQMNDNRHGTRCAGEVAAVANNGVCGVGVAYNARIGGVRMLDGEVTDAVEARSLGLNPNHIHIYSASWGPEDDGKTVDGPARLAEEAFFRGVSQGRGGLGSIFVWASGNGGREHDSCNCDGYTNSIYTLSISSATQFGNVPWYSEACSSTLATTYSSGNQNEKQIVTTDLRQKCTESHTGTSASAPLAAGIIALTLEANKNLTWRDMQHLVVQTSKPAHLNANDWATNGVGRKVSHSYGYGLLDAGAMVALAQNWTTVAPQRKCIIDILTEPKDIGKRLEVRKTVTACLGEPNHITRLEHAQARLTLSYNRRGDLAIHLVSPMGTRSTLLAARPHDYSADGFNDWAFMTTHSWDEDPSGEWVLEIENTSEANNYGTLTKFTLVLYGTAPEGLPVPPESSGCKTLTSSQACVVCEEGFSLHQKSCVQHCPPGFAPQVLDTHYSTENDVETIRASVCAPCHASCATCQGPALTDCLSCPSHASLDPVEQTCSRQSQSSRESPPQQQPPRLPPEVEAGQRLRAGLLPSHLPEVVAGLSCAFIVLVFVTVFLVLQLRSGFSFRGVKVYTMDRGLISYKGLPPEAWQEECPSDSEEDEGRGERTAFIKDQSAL
- ASSAY METHOD TEXT: furin cleavage Z-score vs untreated control; higher = more cleavage, active = 3.5 or more, inactive = 1 or less, 8 variable residues between constant flanks
- CONDITION NOTES: 30 min
The other results are listed elsewhere or left out. How many sequences the whole screen found active is unknown.
Answer with one of the outcomes given here: 1 (active), -1 (inactive)

Test call, this sequence: CASRLRFDRFAGNASASA [FS-505]
-1

All figures here come from the supplement of paper PMC3545927.
